procedure_text: Induction of activation of human CD56+ CD3- NK cells co-cultured with human K562 cells in 5:1 ratio and assessed as increase in TNF-alpha secretion at 10 uM measured by ELISA assay
Assay type: functional, Natural killer cell

{"smiles_text": "C[C@H](Cc1nncn1C)c1cccc(NC(=O)c2ccnc(C(F)(F)F)n2)c1", "fold change (FC)": ">=5"}
{"smiles_text": "Cn1cnnc1C(F)(F)[C@](C)(F)c1cccc(N2Cc3c(cc(CN4CC[C@H](F)C4)cc3C(F)(F)F)C2=O)c1", "fold change (FC)": ">=5"}
{"smiles_text": "Cn1cnnc1C(F)(F)[C@](C)(F)c1cccc(N2Cc3c(cccc3C(F)(F)F)C2=O)c1", "fold change (FC)": "<=1"}
{"smiles_text": "C[C@H](Cc1nncn1C)c1cccc(NC(=O)c2cc(C(=O)N3CC[C@H](O)C3)cc(C(F)(F)F)n2)c1", "fold change (FC)": 2.01}

Recorded values, source ChEMBL document CHEMBL5050844.
